List of TGI values.
Test system: OVCAR-5 ovarian
assay_procedure: NCI tumour cell line growth inhibition, 48 h
Report as a plain number; the unit µM is understood.

[
  {
    "molecular_string": "c1ccc(Nc2nnc(CSc3nc(-c4ccccc4)c(-c4ccccc4)[nH]3)s2)cc1",
    "TGI / µM": 43.6
  }
]

Moving on to the next molecule.
Query string: Give me measured TGI, please, for this molecule: Cc1cc(N2CCCCC2)nc(N(CCNc2ccnc3cc(Cl)ccc23)Cc2ccco2)n1
Result string: 6.84

###

Measured GI50 values are reported for all entries that follow.
Test system: MCF7 breast
assay_procedure: NCI tumour cell line growth inhibition, 48 h

Consider the worked cases shown below.
[
  {
    "compound": "C[C@]12CC[C@H]3[C@@H](CCC4=CC(=O)CC[C@@H]43)[C@@H]1CC[C@@H]2OC(=O)N(CCCl)N=O",
    "assay_target": "MCF7 breast",
    "GI50": "7.07 µM"
  },
  {
    "compound": "CC[C@H](Nc1nc(N)nc(C)c1C#N)c1nc2cccc(CN(C)c3ncc(C(=O)NO)cn3)c2c(=O)n1-c1ccccc1",
    "assay_target": "MCF7 breast",
    "GI50": "0.915 µM"
  },
  {
    "compound": "C=CCC(N[C@H](CO)C(C)C)c1cn(C(=O)OCC)c2ccccc12 (stereo not given in full)",
    "assay_target": "MCF7 breast",
    "GI50": "35 µM"
  }
]

Query string: Write down GI50 measured for item C=C1C(=O)O[C@@H]2C1CC(=O)C(C)CC/C=C(\C)CCC[C@H](C)[C@H]2OC(C)=O (stereo not given in full)
Result string: 4.81 µM

Query string: Return the recorded GI50 value; entry: COc1cc(Cn2cc3c(c2)-c2oncc2CC3)cc(OC)c1OC
Result string: 0.0324 µM

Query string: State its GI50: COc1ccc(Cn2nc(-c3cc(OC)c(OC)c(OC)c3)c3c2CCc2cnoc2-3)cc1OC
Result string: 3.45 µM

Query string: Give the reported value of GI50 for this record: CCc1c(C)[nH]c(/C=C2\N=C(c3ccc[nH]3)C=C2OC)c1C
Result string: 0.4 µM

Query string: Hello, please tell me recorded GI50 for this one: COc1ccc2c(c1)CCC1C2CCC2(C)C1CCC2(O)CNC(=O)CCCCC1CCSS1 (stereo not given)
Result string: 10.3 µM

Query string: Give a short answer stating reported GI50 for Cc1ccc2[nH]c(C(=O)NN3C(=O)CSC34CCCCC4C)c(-c3ccccc3)c2c1 (stereo not given) .
Result string: 14.9 µM

Query string: Return the recorded GI50 value; entry: CCCN(Cc1ccc(F)cc1)c1ccc(CO)c(Cl)c1
Result string: 0.375 µM
